biological target: Recombinant human MAO-B (Homo sapiens (Human), UniProt P27338); assay: Inhibition of human recombinant MAO-B; details: benzylamine 100 μM
Sequence (P27338 whole entry): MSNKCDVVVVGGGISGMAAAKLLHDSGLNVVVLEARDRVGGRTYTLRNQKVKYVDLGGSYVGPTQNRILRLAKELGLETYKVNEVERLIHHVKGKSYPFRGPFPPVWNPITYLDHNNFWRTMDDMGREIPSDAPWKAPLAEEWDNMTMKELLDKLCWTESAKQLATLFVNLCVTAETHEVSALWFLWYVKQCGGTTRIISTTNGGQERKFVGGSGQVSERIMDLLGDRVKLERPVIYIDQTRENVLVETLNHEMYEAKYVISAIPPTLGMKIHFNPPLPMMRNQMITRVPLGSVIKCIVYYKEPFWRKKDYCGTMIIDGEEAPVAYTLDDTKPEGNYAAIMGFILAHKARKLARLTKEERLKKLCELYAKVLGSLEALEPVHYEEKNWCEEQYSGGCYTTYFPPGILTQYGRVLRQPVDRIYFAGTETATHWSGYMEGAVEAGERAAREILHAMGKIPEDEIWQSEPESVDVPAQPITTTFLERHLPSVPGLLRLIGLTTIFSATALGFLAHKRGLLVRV
pIC50: −log10 of the molar value. Where a name gives a salt, the structure may show the parent alone.
measurement.name: pIC50

Which pIC50 is listed for `CCOC(=O)c1cccc(-c2c(C)n(C/C(F)=C/CN)c3ccc(S(=O)(=O)N(C)C)cc23)c1` ?
< 5.52

Record request: pIC50 value, item `Cc1c(-c2cccc(S(C)(=O)=O)c2)c2cc(C(=O)N(C)C)ccc2n1C/C(F)=C/CN`
< 5.52

Item under review: COc1ccc2c(n1)c(-c1cccc(S(C)(=O)=O)c1)c(C)n2C/C(F)=C/CN [Compound 69, Dihydrochloride] . Reported pIC50?
< 5.52

Would you mind telling me what pIC50 value was observed for `Cc1c(-c2cccc(S(=O)(=O)N(C)C)c2)c2cc(C(=O)N(C)C)ccc2n1C/C(F)=C/CN` ?
< 5.52

Quick one: pIC50 of Cc1c(-c2cncc(S(=O)(=O)N(C)C)c2)c2cc(OC(F)(F)F)ccc2n1C/C(F)=C/CN [Compound 85, Dihydrochloride] ?
< 5.52

pIC50 lookup needed for `Cc1c(-c2cccc(S(=O)(=O)N(C)C)c2)c2ccc(C(=O)O)cc2n1C/C(F)=C/CN` , thanks.
< 5.52

Reported pIC50 for Cc1c(-c2cccc(S(=O)(=O)N(C)C)c2)c2ccncc2n1C/C(F)=C/CN [Compound 32, Dihydrochloride] : what is it?
< 5.52

For the molecule `Cc1c(-c2cccc(S(=O)(=O)N(C)C)c2)c2cccc(C(=O)N(C)C)c2n1C/C(F)=C/CN` , what pIC50 is on record?
< 5.52

Consider the molecule shown here: `Cc1c(-c2cccc(S(C)(=O)=O)c2)c2cc(C(=O)O)ccc2n1C/C(F)=C/CN` What is its recorded pIC50?
< 5.52

# lookup: pIC50 of `Cc1c(-c2ccc(F)cc2)c2cc(C(=O)O)ccc2n1C/C(F)=C/CN`
< 5.52

Name the reported pIC50 value associated with the molecule `Cc1c(-c2ccc(F)cc2)c2cc(S(N)(=O)=O)ccc2n1C/C(F)=C/CN`
< 5.52

What measured pIC50 goes with `CCOC(=O)c1ccc2c(c1)c(-c1cccc(S(=O)(=O)N(C)C)c1)c(C)n2C/C(F)=C/CN` ?
< 5.52

Requested field: pIC50. Item: Cc1c(-c2cccc(S(=O)(=O)N(C)C)c2)c2ncccc2n1C/C(F)=C/CN [Compound 25, Dihydrochloride]
< 5.52

For `Cc1c(-c2ccncc2)c2cc(S(C)(=O)=O)ccc2n1C/C(F)=C/CN` , what is its reported pIC50?
< 5.52

Give its pIC50 value. Item: Cc1ccc2c(n1)c(-c1cccc(S(C)(=O)=O)c1)c(C)n2C/C(F)=C/CN [Compound 112, Dihydrochloride]
< 5.52

----------
Structures can show the parent of a compound that is named as a salt.
Values of IC50 reported for Bovine LOX (Bos taurus (Bovine)) appear below.

Item `Cc1c(-c2cccc(S(=O)(=O)N(C)C)c2)c2cccnc2n1C/C(F)=C/CN` has what recorded IC50?
> 300 nM

// lookup IC50 for Cc1c(-c2cncc(S(=O)(=O)N(C)C)c2)c2cc(OC(F)(F)F)ccc2n1C/C(F)=C/CN [Compound 85, Dihydrochloride]
> 300 nM

What measured IC50 goes with `Cc1c(-c2cccc(N(C)S(C)(=O)=O)c2)c2cc(C(=O)N(C)C)ccc2n1C/C(F)=C/CN` ?
> 300 nM

Quick one: IC50 of `Cc1c(-c2cccc(C(F)(F)F)c2)c2cc(C(=O)N(C)C)ccc2n1C/C(F)=C/CN` ?
> 300 nM

----------
measurement.name: IC50

Param readout = IC50; param system = UniProt:Q9Y4K0; param query = `Cc1c(-c2cccc(S(=O)(=O)N(C)C)c2)c2cc(C(=O)N(C)C(C)C)ccc2n1C/C(F)=C/CN` ; response: value
Sequence (Q9Y4K0 26-774): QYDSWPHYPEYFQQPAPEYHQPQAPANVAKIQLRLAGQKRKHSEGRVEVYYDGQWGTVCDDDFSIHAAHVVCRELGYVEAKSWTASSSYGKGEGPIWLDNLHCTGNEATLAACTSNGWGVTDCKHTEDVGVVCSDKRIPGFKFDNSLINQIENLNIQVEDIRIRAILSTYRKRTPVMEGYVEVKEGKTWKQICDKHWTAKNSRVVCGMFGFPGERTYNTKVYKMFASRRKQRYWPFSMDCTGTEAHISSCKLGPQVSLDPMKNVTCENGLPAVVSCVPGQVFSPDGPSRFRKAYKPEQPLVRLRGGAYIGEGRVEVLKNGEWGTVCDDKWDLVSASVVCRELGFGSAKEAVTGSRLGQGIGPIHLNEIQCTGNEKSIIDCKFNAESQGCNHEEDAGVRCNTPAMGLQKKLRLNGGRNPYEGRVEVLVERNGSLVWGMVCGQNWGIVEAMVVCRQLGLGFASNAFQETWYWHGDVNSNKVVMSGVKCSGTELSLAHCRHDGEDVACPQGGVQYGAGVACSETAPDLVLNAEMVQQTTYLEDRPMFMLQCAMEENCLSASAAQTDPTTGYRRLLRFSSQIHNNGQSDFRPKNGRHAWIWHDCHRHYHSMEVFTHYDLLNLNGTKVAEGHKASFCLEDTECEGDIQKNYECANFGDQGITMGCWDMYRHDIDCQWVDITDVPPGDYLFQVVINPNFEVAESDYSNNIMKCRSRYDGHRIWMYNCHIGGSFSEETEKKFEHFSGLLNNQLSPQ
< 300 nM

Form entry - test system: UniProt:Q9Y4K0; read-out: IC50; molecule: `Cc1c(-c2cncc(S(=O)(=O)N(C)C)c2)c2cc(C(=O)N(C)C)ccc2n1C/C(F)=C/CN`
< 300 nM

Give recorded IC50 with UniProt:Q9Y4K0 for the following molecule: `Cc1c(-c2cncc(S(=O)(=O)N(C)C)c2)c2cc(Cl)cnc2n1C/C(F)=C/CN`
< 300 nM

----------
molecular target: Recombinant human MAO-B (Homo sapiens (Human), UniProt P27338); experiment: Inhibition of human recombinant MAO-B; details: benzylamine 100 μM
Assign IC50 to each entry below.

Request: IC50, test system Recombinant human MAO-B (Homo sapiens (Human), UniProt P27338), entry Cc1cc(-c2c(C)n(C/C(F)=C/CN)c3ccc(S(C)(=O)=O)cc23)cc(C)n1 [Compound 89]
> 3000 nM

Record lookup: for Recombinant human MAO-B (Homo sapiens (Human), UniProt P27338), what IC50 belongs to Cc1c(-c2cccc(C(=O)O)c2)c2cc(S(=O)(=O)N(C)C)ccc2n1C/C(F)=C/CN [Compound 34] ?
> 3000 nM

Which measured IC50 belongs to Cc1c(-c2ccc(S(=O)(=O)N(C)C)cc2)c2ccccc2n1C/C(F)=C/CN [Compound 3] , tested on Recombinant human MAO-B (Homo sapiens (Human), UniProt P27338)?
> 3000 nM

Query IC50 on Recombinant human MAO-B (Homo sapiens (Human), UniProt P27338) for Cc1c(-c2cncc(S(=O)(=O)N(C)C)c2)c2cc(Cl)cnc2n1C/C(F)=C/CN [Compound 73]
> 3000 nM

----------
Kindly state IC50 for each of the entries shown.
biological target: Recombinant human MAO-B (Homo sapiens (Human), UniProt P27338); assay: Inhibition of human recombinant MAO-B; settings: benzylamine 100 μM
Where a name gives a salt, the structure may show the parent alone.

Form: Entry = `NC/C=C(\F)Cn1cc(-c2ccc(F)cc2)c2ccccc21` | System = Recombinant human MAO-B (Homo sapiens (Human), UniProt P27338) | IC50 = ____
> 3000 nM

Request: IC50, test system Recombinant human MAO-B (Homo sapiens (Human), UniProt P27338), entry `COCc1ccc2c(n1)c(-c1cccc(S(=O)(=O)N(C)C)c1)c(C)n2C/C(F)=C/CN`
> 3000 nM

Reported IC50 for Recombinant human MAO-B (Homo sapiens (Human), UniProt P27338), given `CCOC(=O)c1ccc2c(c1)c(-c1cccc(C(C)(C)C)c1)c(C)n2C/C(F)=C/CN` ?
> 3000 nM

Missing value: IC50, Recombinant human MAO-B (Homo sapiens (Human), UniProt P27338), entry Cc1c(-c2cccc(C(C)(C)C)c2)c2cc(C(=O)O)ccc2n1C/C(F)=C/CN [Compound 31, Hydrochloride] . Fill in?
> 3000 nM

Recorded IC50 for Cc1c(-c2cccc(C(=O)N(C)C)c2)c2cc(C(=O)O)ccc2n1C/C(F)=C/CN [Compound 16, Hydrochloride] with Recombinant human MAO-B (Homo sapiens (Human), UniProt P27338), please?
> 3000 nM

Kindly state the measured IC50 obtained for `COC(=O)c1ccc2c(-c3cccc(S(=O)(=O)N(C)C)c3)c(C)n(C/C(F)=C/CN)c2c1` with Recombinant human MAO-B (Homo sapiens (Human), UniProt P27338).
> 3000 nM

# returns recorded IC50 (system: Recombinant human MAO-B (Homo sapiens (Human), UniProt P27338)) for `Cc1c(-c2cccc(S(=O)(=O)N(C)C)n2)c2cc(Cl)ccc2n1C/C(F)=C/CN`
> 3000 nM

Lookup: IC50 / Recombinant human MAO-B (Homo sapiens (Human), UniProt P27338) / `Cc1c(-c2cccnc2)c2cc(Cl)ccc2n1C/C(F)=C/CN`
> 3000 nM

Which IC50 is reported with Recombinant human MAO-B (Homo sapiens (Human), UniProt P27338) for this entry: `Cc1c(-c2cccc(S(=O)(=O)N(C)C)c2)c2ncc(F)cc2n1C/C(F)=C/CN` ?
> 3000 nM

Could you share what IC50 was measured for `Cc1cc(-c2c(C)n(C/C(F)=C/CN)c3ccc([N+](=O)[O-])cc23)cc(C)n1` , tested on Recombinant human MAO-B (Homo sapiens (Human), UniProt P27338)?
> 3000 nM

Query IC50 on Recombinant human MAO-B (Homo sapiens (Human), UniProt P27338) for `CCOC(=O)c1cc2c(-c3cccc(S(=O)(=O)N(C)C)c3)c(C)n(C/C(F)=C/CN)c2cc1F`
> 3000 nM

Give Recombinant human MAO-B (Homo sapiens (Human), UniProt P27338) IC50 for `Cc1ccc(S(=O)(=O)N(C)C)cc1-c1c(C)n(C/C(F)=C/CN)c2ccc(C(=O)O)cc12`
> 3000 nM

Test system Recombinant human MAO-B (Homo sapiens (Human), UniProt P27338); read-out IC50; what value for `Cc1c(-c2cccc(S(=O)(=O)N(C)C)c2)c2cc(C(=O)N(C)C(C)C)ccc2n1C/C(F)=C/CN` ?
> 3000 nM

Request: IC50, test system Recombinant human MAO-B (Homo sapiens (Human), UniProt P27338), entry `COc1cc(-c2c(C)n(C/C(F)=C/CN)c3ccc(S(C)(=O)=O)cc23)ccn1`
> 3000 nM

Give Recombinant human MAO-B (Homo sapiens (Human), UniProt P27338) IC50 for `CNC(=O)c1ccc2c(n1)c(-c1cccc(S(=O)(=O)N(C)C)c1)c(C)n2C/C(F)=C/CN`
> 3000 nM

Please provide the recorded IC50 for `Cc1c(-c2cccc(S(=O)(=O)N(C)C)c2)c2cccnc2n1C/C(F)=C/CN` , tested on Recombinant human MAO-B (Homo sapiens (Human), UniProt P27338).
> 3000 nM
